TARGET_ENTITY: T1, hOX40-his (human, UniProt P43489 29-216)
T1 construct: range 1-216; Made in HEK293; The stated range starts at residue 1 (holds the signal peptide of the entry); no cleavage site stated; not shown: his tag
T1 sequence (looked up): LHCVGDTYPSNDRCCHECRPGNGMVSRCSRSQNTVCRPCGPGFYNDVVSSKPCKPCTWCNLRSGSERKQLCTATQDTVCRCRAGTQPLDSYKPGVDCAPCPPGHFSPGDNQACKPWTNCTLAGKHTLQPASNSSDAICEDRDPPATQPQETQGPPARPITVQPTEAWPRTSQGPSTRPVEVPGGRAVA
TEST_DETAILS: BIACORE, antibody on the probe, 20 nM OX40-his
Source text: Table 10 illustrates the CDRs of eight full antibodies containing these amino acid mutations, and the rest of the sequences are the same as those of antibody-F23-32K. […]
OBSERVABLE: Kd (nM)
Field: numeric (nM). Do not append units.

WEST + VG (antibody, human IgG1, kappa, V domains shown) VH: QVQLEESGGGVVQPGESLRLSCAASGFTFSSYGMHWVRQAPGKGLEWVAVIWEDGSNQYYADSVKGRFTISRDNSKNTLYLQMNSLRAEDTAVYYCAKDNQDTSPDVGIDYWGQGTLVTVSS VL: DIQMTQSPSSLSASVGDTVTITCRASQNISPFLNWYQQKPGKAPKLLIYAAVGLQSGVPSRFSGSGSGTDFTLTISSLQPEDFATYYCQQYNSYPLTFGGGTKVEIKR    0.77
T + TD (antibody, human IgG1, kappa, V domains shown) VH: QVQLEESGGGVVQPGESLRLSCAASGFTFSSYGMHWVRQAPGKGLEWVAVISYDGSNQYYADSVKGRFTISRDNSKNTLYLQMNSLRAEDTAVYYCAKDNQDTSPDVGIDYWGQGTLVTVSS VL: DIQMTQSPSSLSASVGDTVTITCRASQNISPFLNWYQQKPGKAPKLLIYAASSLQSGVPSRFSGSGSGTDFTLTISSLQPEDFATYYCQQYTDYPLTFGGGTKVEIKR    5.01

Continue with the next binder.
Kd recorded for this binder, WEST + TD (antibody, human IgG1, kappa, V domains shown) VH: QVQLEESGGGVVQPGESLRLSCAASGFTFSSYGMHWVRQAPGKGLEWVAVIWEDGSNQYYADSVKGRFTISRDNSKNTLYLQMNSLRAEDTAVYYCAKDNQDTSPDVGIDYWGQGTLVTVSS VL: DIQMTQSPSSLSASVGDTVTITCRASQNISPFLNWYQQKPGKAPKLLIYAASSLQSGVPSRFSGSGSGTDFTLTISSLQPEDFATYYCQQYTDYPLTFGGGTKVEIKR , is 0.653

Each recorded value in this set is attributed to patent US20230139700A1.
